Overview of reported bioavailability across a group of molecules:
Assay: Oral bioavailability in Sprague-Dawley rat at 10 mg/kg
Assay type: ADME, organism-based
Settings: in vivo
METRIC NAME: bioavailability (%)

>  <STRUCTURE STRING>
CNC(=O)c1c(NCC2CCC3(CCC3)CC2)nc(C#N)nc1OCC1CCN(C(C)C)CC1

>  <UNIT TAG>
%

>  <EXPERIMENTAL RESULT>
24

$$$$
>  <STRUCTURE STRING>
CNC(=O)c1c(NCC2CCC3(CCC3)CC2)nc(C#N)nc1OCCO

>  <UNIT TAG>
%

>  <EXPERIMENTAL RESULT>
14

$$$$
>  <STRUCTURE STRING>
CNC(=O)c1c(NCC2CCC3(CCC3)CC2)nc(C#N)nc1OCC1CCN(C)CC1

>  <UNIT TAG>
%

>  <EXPERIMENTAL RESULT>
40

$$$$
